# systemName: Prostacyclin receptor (Homo sapiens, UniProt P43119)
# Sequence (P43119 whole entry): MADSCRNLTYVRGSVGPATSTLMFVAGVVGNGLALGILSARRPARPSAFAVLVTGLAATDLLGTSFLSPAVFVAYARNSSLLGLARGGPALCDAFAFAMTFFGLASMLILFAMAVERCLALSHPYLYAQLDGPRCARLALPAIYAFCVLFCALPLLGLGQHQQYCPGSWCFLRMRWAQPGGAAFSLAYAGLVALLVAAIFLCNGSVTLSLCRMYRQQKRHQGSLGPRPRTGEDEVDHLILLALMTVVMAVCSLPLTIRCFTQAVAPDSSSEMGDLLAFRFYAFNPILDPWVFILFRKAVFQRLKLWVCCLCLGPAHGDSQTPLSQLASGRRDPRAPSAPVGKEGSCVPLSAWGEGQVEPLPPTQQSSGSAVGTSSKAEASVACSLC
measurementKind: IC50 (nM)

>>> experimentalvalue("O=C(O)COc1cccc2c1CCC(Cn1cc(C(c3ccccc3)c3ccccc3)cn1)=C2")
8
